Tested on: EKVX
test_method_notes: relative viability (nuclei count vs DMSO), 5 days (fraction); higher = more cells survive
setup_conditions: first compound 20 µM
measurement_label: relative viability
Just the number.

Any idea what its relative viability is? The molecule is Cc1csc(=NC2CCCCC2)n1/N=C/c1ccc(O)c(O)c1O [MIM1] + CC1(C)CCC(c2ccc(Cl)cc2)=C(CN2CCN(c3ccc(C(=O)NS(=O)(=O)c4ccc(N[C@H](CCN5CCOCC5)CSc5ccccc5)c(S(=O)(=O)C(F)(F)F)c4)cc3)CC2)C1 [Navitoclax] (partner 0.5 µM)
0.293

Now try Cc1csc(=NC2CCCCC2)n1/N=C/c1ccc(O)c(O)c1O [MIM1] + Nc1nc2[nH]cc(CCc3ccc(C(=O)N[C@@H](CCC(=O)O)C(=O)O)cc3)c2c(=O)[nH]1 [Pemetrexed] (partner 0.2 µM) .
0.29

Now try Cc1csc(=NC2CCCCC2)n1/N=C/c1ccc(O)c(O)c1O [MIM1] + C[C@@H](Oc1cc(-c2cnn(C3CCNCC3)c2)cnc1N)c1c(Cl)ccc(F)c1Cl [Crizotinib] (partner 1 µM) .
0.757

Now try Cc1csc(=NC2CCCCC2)n1/N=C/c1ccc(O)c(O)c1O [MIM1] + O=C(CCCCCCC(=O)Nc1ccccc1)NO [Vorinostat] (partner 1 µM) .
0.265

====

For each entry below, report its relative viability value.
Test system: NCI-H2342
test_method_notes: relative viability (nuclei count vs DMSO), 5 days (fraction); higher = more cells survive
setup_conditions: first compound 20 µM
Just the number.

Any idea what its relative viability is? The compound is Cc1csc(=NC2CCCCC2)n1/N=C/c1ccc(O)c(O)c1O [MIM1] + O=C(CCCCCCC(=O)Nc1ccccc1)NO [Vorinostat] (partner 1 µM)
0.905

Now try Cc1csc(=NC2CCCCC2)n1/N=C/c1ccc(O)c(O)c1O [MIM1] + N=C(N)NC(=N)NCCc1ccccc1 [Phenformin] (partner 250 µM) .
0.785

Now try Cc1csc(=NC2CCCCC2)n1/N=C/c1ccc(O)c(O)c1O [MIM1] + Cc1nc(Nc2ncc(C(=O)Nc3c(C)cccc3Cl)s2)cc(N2CCN(CCO)CC2)n1 [Dasatinib] (partner 0.075 µM) .
0.418

Now try Cc1csc(=NC2CCCCC2)n1/N=C/c1ccc(O)c(O)c1O [MIM1] + CC(=O)c1c(C)c2cnc(Nc3ccc(N4CCNCC4)cn3)nc2n(C2CCCC2)c1=O [Palbociclib] (partner 0.5 µM) .
0.57

Now try Cc1csc(=NC2CCCCC2)n1/N=C/c1ccc(O)c(O)c1O [MIM1] + COc1cc2c(Oc3ccc(NC(=O)C4(C(=O)Nc5ccc(F)cc5)CC4)cc3F)ccnc2cc1OCCCN1CCOCC1 [Foretinib] (partner 0.25 µM) .
1.11

Now try Cc1csc(=NC2CCCCC2)n1/N=C/c1ccc(O)c(O)c1O [MIM1] + COc1cccc2cc(-c3nc([C@H]4CC[C@H](C(=O)O)CC4)n4ncnc(N)c34)[nH]c12 [OSI-027] (partner 0.5 µM) .
0.728

Now try Cc1csc(=NC2CCCCC2)n1/N=C/c1ccc(O)c(O)c1O [MIM1] + Nc1ncn([C@H]2C[C@H](O)[C@@H](CO)O2)c(=O)n1 [Decitabine] (partner 2 µM) .
0.724

====

System: NCI-H1915
test_method_notes: relative viability (nuclei count vs DMSO), 5 days (fraction); higher = more cells survive
setup_conditions: first compound 0.03162 µM
For each entry below, report its relative viability value.
Just the number.

Any idea what its relative viability is? The compound is Cc1cn(-c2cc(NC(=O)c3ccc(C)c(Nc4nccc(-c5cccnc5)n4)c3)cc(C(F)(F)F)c2)cn1 [Nilotinib] + Cc1nc(Nc2ncc(C(=O)Nc3c(C)cccc3Cl)s2)cc(N2CCN(CCO)CC2)n1 [Dasatinib] (partner 0.075 µM)
0.27

Now try Cc1cn(-c2cc(NC(=O)c3ccc(C)c(Nc4nccc(-c5cccnc5)n4)c3)cc(C(F)(F)F)c2)cn1 [Nilotinib] + CC(=O)c1c(C)c2cnc(Nc3ccc(N4CCNCC4)cn3)nc2n(C2CCCC2)c1=O [Palbociclib] (partner 0.5 µM) .
0.502

Now try Cc1cn(-c2cc(NC(=O)c3ccc(C)c(Nc4nccc(-c5cccnc5)n4)c3)cc(C(F)(F)F)c2)cn1 [Nilotinib] + COc1cc2c(Oc3ccc(NC(=O)C4(C(=O)Nc5ccc(F)cc5)CC4)cc3F)ccnc2cc1OCCCN1CCOCC1 [Foretinib] (partner 0.25 µM) .
0.983
